Fluorescent Assay kinact values by entry
# measuredOn: ICE (Homo sapiens)
# testSummary: Enzyme assay with fluorescent substrate (Acetyl-Tyr-Val-Ala-Asp-AMC); Ki and second order rate constants kinact
# Format: biochemical
# assayContext: Table 6
assayEndpoint: Fluorescent Assay kinact

CS(=O)(=O)N[C@H]1CCC(=O)N2CCC[C@@H](C(=O)N[C@@H](CC(=O)O)C(=O)COC(=O)c3c(Cl)cccc3Cl)N2C1=O : 1.2 × 10^5 m^−1 s^−1
O=C(O)C[C@H](NC(=O)CN1C(=O)[C@@H](NC(=O)CCc2ccccc2)CN(C(=O)CCc2ccccc2)c2ccccc21)C(=O)COC(=O)c1c(Cl)cccc1Cl [Compound 108a] : 1 × 10^5 m^−1 s^−1
O=C(O)C[C@H](NC(=O)[C@@H]1CCCN2C(=O)CC[C@H](NC(=O)c3ccccc3)C(=O)N12)C(=O)COc1cccnc1 : 1 × 10^5 m^−1 s^−1
COC(=O)N[C@H]1CCC(=O)N2CCC[C@@H](C(=O)N[C@@H](CC(=O)O)C(=O)COC(=O)c3c(Cl)cccc3Cl)N2C1=O : 3.5 × 10^5 m^−1 s^−1
O=C(O)C[C@H](NC(=O)[C@@H]1CCCN2C(=O)CC[C@H](NC(=O)OCc3ccccc3)C(=O)N12)C(=O)COC(=O)c1c(Cl)cccc1Cl [Compound 217d] : 4.7 × 10^5 m^−1 s^−1
O=C(O)C[C@H](NC(=O)[C@@H]1CCCN2C(=O)CC[C@H](NC(=O)c3ccccc3)C(=O)N12)C(=O)CSc1nnnn1-c1ccccc1 : 4 × 10^5 m^−1 s^−1
COC(=O)N[C@H]1CCC(=O)N2CCC[C@@H](C(=O)N[C@@H](CC(=O)O)C(=O)COC(=O)c3c(C)cccc3C)N2C1=O : 4.3 × 10^5 m^−1 s^−1
O=C(O)C[C@H](NC(=O)[C@@H]1CCCN2C(=O)CC[C@H](NC(=O)CCc3ccccc3)C(=O)N12)C(=O)COC(=O)c1c(Cl)cccc1Cl : 5.4 × 10^5 m^−1 s^−1

###

# measuredOn: ICE (Homo sapiens, UniProt P29466)
# Sequence (P29466 120-297 limits assumed): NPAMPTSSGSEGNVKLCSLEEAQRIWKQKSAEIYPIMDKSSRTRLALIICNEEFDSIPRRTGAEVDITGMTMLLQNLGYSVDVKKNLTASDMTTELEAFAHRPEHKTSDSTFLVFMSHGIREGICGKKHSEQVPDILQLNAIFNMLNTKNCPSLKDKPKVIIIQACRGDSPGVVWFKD
# Sequence (P29466 317-404 limits assumed): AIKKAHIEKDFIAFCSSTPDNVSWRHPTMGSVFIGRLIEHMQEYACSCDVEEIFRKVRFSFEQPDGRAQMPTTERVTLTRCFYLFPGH
# testSummary: Enzyme assay with UV-visible substrate (visible ICE assay, Succinyl-Tyr-Val-Ala-Asp-pNitroanilide)
# Assay type: biochemical
# assayContext: Table 5
pKi: −log10 of the molar value.
Use 7 as the dividing line for pKi, with the line itself on the 1 (yes) side and lower values as 0 (no).

Cc1cc(C(=O)N[C@H]2CCC(=O)N3CCC[C@@H](C(=O)N[C@H](C=O)CC(=O)O)N3C2=O)no1 : 1 (yes)
COc1ccc(C(=O)N[C@H]2CCC(=O)N3CCC[C@@H](C(=O)N[C@H](C=O)CC(=O)O)N3C2=O)cc1F : 1 (yes)
O=C[C@H](CC(=O)O)NC(=O)[C@@H]1CCCN2C(=O)CC[C@H](NC(=O)/C=C/c3ccccc3)C(=O)N12 : 1 (yes)
O=C[C@H](CC(=O)O)NC(=O)[C@@H]1CCCN2C(=O)CC[C@H](NC(=O)c3ccccc3)C(=O)N12 [Compound 214e] : 1 (yes)
CCOC1OC(=O)C[C@@H]1NC(=O)[C@@H]1CCCN2C(=O)CC[C@H](NC(=O)c3ccccc3)C(=O)N12 (stereo partly shown) [Compound 2100e] : 0 (no)
CC(C)(C)OC(=O)C[C@@H](C=O)NC(=O)[C@@H]1CCCN2C(=O)CC[C@H](NC(=O)c3ccccc3)C(=O)N12 : 0 (no)
CC(=O)N1C[C@H](NC(=O)c2cccc3ccccc23)C(=O)N(CC(=O)N[C@H](C=O)CC(=O)O)c2ccccc21 : 1 (yes)
CC(=O)N1C[C@H](NC(=O)c2ccc3cc(OC(=O)c4ccc5cc(O)ccc5c4)ccc3c2)C(=O)N(CC(=O)N[C@H](C=O)CC(=O)O)c2ccccc21 : 1 (yes)
CC(=O)Nc1cccc(C(=O)N[C@H]2CCC(=O)N3CCC[C@@H](C(=O)N[C@H](C=O)CC(=O)O)N3C2=O)c1 : 1 (yes)
CC(=O)N1C[C@H](NC(=O)c2ccc3c(c2)OCO3)C(=O)N(CC(=O)N[C@H](C=O)CC(=O)O)c2ccccc21 : 1 (yes)
